protocol notes: NCI Yeast Anticancer Drug Screen. Data for the sgs1 strain (AID 173);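 note: 0% = growth of vehicle-only control cultures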
run conditions: S. cerevisiae sgs1 mutant, at 100.0 µM, active compounds read high
Compounds without any hit were thinned out: in the full panel of roughly 79,000, 15% have a hit.
Record yes (1) whenever growth inhibition is at 90% or higher; record no (0) when lower.

Problem: Check if growth inhibition >= 90% (inclusive). Item: `CCO/C=C1\SC(=S)N(c2ccc(OCC)cc2)C1=O`
Solution: no (0)

Problem: Check if growth inhibition >= 90% (inclusive). Item: `CC(=O)Oc1ccc2c(c1)Cc1cc(N3C(=O)C=CC3=O)ccc1-2`
Solution: yes (1)

Problem: Check if growth inhibition >= 90% (inclusive). Item: `O=C1C=C(NCCc2cc(Br)c(O)c(Br)c2)C(=O)c2ncccc21`
Solution: yes (1)

Problem: Check if growth inhibition >= 90% (inclusive). Item: `NCCOc1ccc(/C(=C(/Cl)c2ccccc2)c2ccccc2)cc1`
Solution: yes (1)

Query compound follows.
Problem: Check if growth inhibition >= 90% (inclusive). Item: `N#Cc1nc(Nc2ccc(Cl)cc2)sc1N`
Solution: no (0)

----------
protocol notes: NCI Yeast Anticancer Drug Screen. Data for the mgt1 strain (AID 153)
run conditions: S. cerevisiae mgt1 mutant growth inhibition; at 11.0 µM; active compounds read high
Compounds without any hit were thinned out: in the full panel of roughly 79,000, 15% have a hit.
reported endpoint: growth inhibition (%)
Give bare numbers, in %.

Problem: Name the recorded growth inhibition of the item `O=C(NCCNCCNC(=O)c1cc(-c2ccccc2)nc2ccccc12)c1cc(-c2ccccc2)nc2ccccc12` in your answer.
Solution: -2

Problem: Name the recorded growth inhibition of the item `CC(C)NCCCNc1c2ccccc2nc2cccc([N+](=O)[O-])c12` in your answer.
Solution: 58

Problem: Name the recorded growth inhibition of the item `Cc1nc2sc3c(c2c(=O)o1)CCCC3` in your answer.
Solution: 18

Problem: Name the recorded growth inhibition of the item `CCCCCCC=C(C(=O)OCC)C(=O)OCC` in your answer.
Solution: 0

Problem: Name the recorded growth inhibition of the item `CCOC(=O)/C(=C\c1ccc(F)cc1)C(C)=O` in your answer.
Solution: 77

Problem: Name the recorded growth inhibition of the item `COc1cc([C@@H]2c3cc4c(cc3[C@@H](NC(=O)NO)[C@H]3COC(=O)[C@H]23)OCO4)cc(OC)c1O` in your answer.
Solution: -2

I would be grateful if you could provide growth inhibition for each of the following entries.
1. O=C1CC(C(O)(C(F)(F)F)C(F)(F)Cl)CCC1C(O)(C(F)(F)F)C(F)(F)Cl (stereo not given)
2. CC(CC/C(=N/O)c1ccccc1)(CC/C(=N\O)c1ccccc1)[N+](=O)[O-] (stereo not given)
3. Cc1c(Cl)c(C)c(Cl)c(O)c1Cl
4. O=C(/N=N/C(=O)Oc1ccccc1)Oc1ccccc1
5. O=C1c2ccccc2C(=O)c2c(O)c(NCCNCCO)cc(O)c21

Solution:
1: 87; 2: -4; 3: 56; 4: -63; 5: 36

----------
protocol notes: NCI Yeast Anticancer Drug Screen. Data for the bub3 strain (AID 167)
run conditions: S. cerevisiae bub3 mutant strain, at 11.0 µM, active compounds read high
About 79,000 compounds went through this panel and 15% of them were active in at least one assay; those are over-represented in the sample as a whole. Calls of active or inactive are those of the source. No stated cut-off is given here; in the data, active means growth inhibition above about 70%; inactive means the rest.
reported endpoint: growth inhibition

Problem: Name the recorded growth inhibition of the item N#CC1OB(O)c2ccccc21 (stereo unspecified) in your answer.
Solution: -6% (inactive)

Problem: Name the recorded growth inhibition of the item `CN(C)N=Nc1ccc(N(C)C)cc1` in your answer.
Solution: -7% (inactive)

Problem: Name the recorded growth inhibition of the item `O=[N+]([O-])c1cc(Cl)ccc1S(=O)(=O)c1ccc(Cl)cc1[N+](=O)[O-]` in your answer.
Solution: 80% (active)

Problem: Name the recorded growth inhibition of the item `O=C1C(=O)N(c2ccccc2)[C@@]2(c3ccccc3)C(=Nc3ccccc3)OC(c3ccccc3)=C12` in your answer.
Solution: -5% (inactive)

Problem: Name the recorded growth inhibition of the item `COc1cc2oc3ccccc3c(=O)c2cc1CSc1ccccc1N` in your answer.
Solution: 35% (inactive)

Further cases:
Problem: Name the recorded growth inhibition of the item `CCCCCCNCCCNc1c2ccccc2nc2cccc([N+](=O)[O-])c12` in your answer.
Solution: -12% (inactive)
